Value source: patent US20180016324A1

Assignment: determine reported kon for the given binders.
target: T1, ZIKV (prM80E) with a C-terminal myc-myc-hexahistidine tag (Zika virus, UniProt A0A024B7W1 104-694); assay: SPR, mAb captured, 37C
T1 construct: also called ZIKV (prM80E)-mmH; ZIKV-mmH

Data request: Given the entry H4H25703N (antibody, V domains shown) VH: QVQLVESGGGVVQPGRSLRLSCAASGFTFNYYGMHWVRQAPGKGLEWVAVISYDGTNKYYADSVKGRFTTSRDNSKNTLYLQMNSLRAEDTALYYCARDRGGRFDYWGQGIQVTVSS VL: EIVLTQSPDTLSLSPGERATLSCRASQSVSSNYLAWYQQKPGQAPRLLIYGASSRATGIPDRFSGSGSGTDFTLTISRLEPEDFAVYYCQRYGTSPLTFGGGTKVEIKR , report its measured kon.
Data returned: 738000 M⁻¹ s⁻¹

Data request: What value of measured kon is listed for H4H25587P (antibody, V domains shown) VH: EVQLVESGGGLVQPGRSLTLSCAASGFTFDDYVMHWVRQAPGKGLEWVSGISWNSDTIDYADSVKGRFTISRDNAKNSLYLQMNSLRAEDTALYYCAKDRRSWYGGYFDYWGQGTLVTVSS VL: DIQMTQSPSSLSASVGDRVTITCRASQGISSYLAWYQQKPGKVPKLLIYAASTLQSGVPSRFSGSGSGTDFSLTISSLQPEDVATYYCQKYNSAPLTFGGGTKVEIK ?
Data returned: 1.1e+06 M⁻¹ s⁻¹

Data request: Query (binder): H4H25641P (antibody, V domains shown) VH: QVQLVESGGGVVQPGRSLRLSCAASGFTFSYYGMHWVRQAPGKGLEWVAVISYDASNNYYVDSVKGRFTISRDNSKNTLYLQMNSLRAEDTAVYYCAKDYGGRFDYWGQGTLVTVSS VL: EIVLTQSPGTLSLSPGERATLSCGASQSVSSYLAWYQQKPGQTPRLLIYGASSRATGIPDRFSGSGSGTDFTLTISRLEPEDFAVYYCQQYGSSPWTFGQGTKVEIK ; field requested: kon
Data returned: 1.59e+06 M⁻¹ s⁻¹

Data request: Given H4H25592P (antibody, V domains shown) VH: QVQLVESGGGVVQPGRSLRLSCAASGFTFSYSGMHWVRQAPGKGLEWVAVISYDGSNKYYADSVKGRFTISRDNSNNILYLQMNSLRAEDTAVYYCAKDWGGRFDPWGQGTLVTVSS VL: DIQMTQSPSSLSASVGDRVTITCRASQGISSYLAWYQQIPGKVPKLLIYAASTLHSGVPSRFSGSGSGTDFTLTISSLQPADVATYYCQKYNSAPLTFGGGTKVEIK , state its recorded kon.
Data returned: 1.61e+06 M⁻¹ s⁻¹

Data request: For the binder shown here, H4H25637P (antibody, V domains shown) VH: QLQLQESGPGLVKPSETLSLTCTVSGDSISSSNYFWGWIRQPPGKGLEWIGNIYYSGDTYYNPSLKSRVTMSVDTSKKQFSLKLRSVTAADTAVYYCARGRPYYDFWSGYFDYWGQGTLVTVSS VL: EIVLTQSPGTLSLSPGERATLPCRASQSVSSSYLAWYQQKPGQAPRLLIYGASSRATGIPDRFRGSGSGTDFTLTISRLEPEDFAVYYCQQYGTAPWTFGQGTKVEIK , give the reported kon.
Data returned: 992000 M⁻¹ s⁻¹
